tested.system: Kv1.5 (Homo sapiens, UniProt P22460)
Sequence (P22460 whole entry): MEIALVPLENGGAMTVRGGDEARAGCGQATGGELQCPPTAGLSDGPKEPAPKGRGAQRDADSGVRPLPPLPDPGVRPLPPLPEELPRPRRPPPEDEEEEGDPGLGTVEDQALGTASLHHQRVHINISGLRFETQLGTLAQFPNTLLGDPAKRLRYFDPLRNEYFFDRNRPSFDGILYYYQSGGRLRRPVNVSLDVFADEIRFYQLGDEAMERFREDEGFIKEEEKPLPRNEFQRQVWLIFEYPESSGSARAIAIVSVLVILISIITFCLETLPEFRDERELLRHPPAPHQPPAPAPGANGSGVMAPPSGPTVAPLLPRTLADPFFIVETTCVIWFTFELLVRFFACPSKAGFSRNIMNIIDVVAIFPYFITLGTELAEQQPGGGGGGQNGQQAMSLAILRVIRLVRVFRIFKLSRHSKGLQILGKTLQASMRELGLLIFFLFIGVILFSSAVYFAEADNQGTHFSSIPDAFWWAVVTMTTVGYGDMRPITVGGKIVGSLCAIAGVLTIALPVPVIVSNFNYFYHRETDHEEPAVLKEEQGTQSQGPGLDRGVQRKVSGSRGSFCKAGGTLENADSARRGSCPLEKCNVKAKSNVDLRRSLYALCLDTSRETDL
experiment.notes: whole-cell patch clamp in HEK […] cells stably expressing Kv1.[…]
observed.property: pIC50
Kindly note that pIC50 refers to -log10 of the concentration in mol/L and answer with the value alone.

Look up pIC50 for this compound: Cc1ncc2n1-c1ccc(Cl)cc1C(c1ccccc1F)=NC2 [midazolam] 4.77

Provenance of the data: paper PMC4232042
